organism: Bos taurus; test: Inhibition of bovine liver beta-glucosidase assessed as reduction of p-nitrophenol release using p-nitrophenyl-glycoside as substrate at 1000 uM by spectrophotometric analysis
Endpoint label: inhibition (%)

Complete the entry with inhibition for "O[C@@H]1[C@@H](O)CN[C@H]1c1ccccc1"
31.7

Complete the entry with inhibition for "O[C@H]1[C@H](CCCc2ccccc2)NC[C@@H]1O"
35

Complete the entry with inhibition for "O[C@H]1[C@H](O)CN[C@@H]1c1ccc(-c2ccccc2)cc1"
39.9

Complete the entry with inhibition for "O[C@H]1[C@H](O)CN[C@@H]1c1ccccc1"
43.7

Complete the entry with inhibition for "O[C@H]1[C@H](O)CN[C@@H]1CCCc1ccccc1"
42.1

Complete the entry with inhibition for "O[C@H]1[C@H](O)CN[C@@H]1c1ccc(F)cc1"
29

Complete the entry with inhibition for "Cc1ccc([C@@H]2NC[C@H](O)[C@H]2O)cc1"
46.4

[P] Cc1ccc([C@H]2NC[C@@H](O)[C@@H]2O)cc1
[Q] OC[C@H]1NC[C@@H](O)[C@@H]1O
[R] OC[C@@H]1NCC(O)C1O (single isomer, unassigned)
[S] O[C@@H]1[C@@H](O)CN[C@H]1c1ccc(F)cc1
// smallest inhibition at index 0, largest at the end Output spec: a listing of the labels in the requested order.
R, Q, S, P
(R: 4.6%, Q: 7.9%, S: 14.8%, P: 38.2%)

====

assay: Inhibition of rice alpha-glucosidase assessed as reduction of p-nitrophenol release using p-nitrophenyl-glycoside as substrate by spectrophotometric analysis; parameters: species or system Oryza sativa
pIC50: −log10 of the molar value.
Endpoint label: pIC50

Complete the entry with pIC50 for "O[C@H]1[C@H](O)CN[C@@H]1c1ccccc1"
3.33

[P] O[C@@H]1[C@@H](O)CN[C@H]1c1ccccc1
[Q] OC[C@@H]1NCC(O)C1O (single isomer, unassigned)
[R] OC[C@H]1NC[C@@H](O)[C@@H]1O
Rank descending by pIC50. Output spec: a listing of the labels in the requested order.
Q, R, P

====

system: Penicillium decumbens; experiment: Inhibition of Penicillium decumbens alpha-L-rhamnosidase assessed as reduction of p-nitrophenol release using p-nitrophenyl-glycoside as substrate at 1000 uM by spectrophotometric analysis
Endpoint label: inhibition (%)

Example entries and their recorded answers appear below.
Complete the entry with inhibition for "O[C@H]1[C@H](O)CN[C@@H]1CCCc1ccccc1"
8.3

Complete the entry with inhibition for "O[C@@H]1[C@@H](O)CN[C@H]1c1ccccc1"
1.8

Complete the entry with inhibition for "O[C@@H]1[C@@H](O)CN[C@H]1c1ccc(-c2ccccc2)cc1"
6.4

Complete the entry with inhibition for OC[C@@H]1NCC(O)C1O (single isomer, unassigned)
1.3

Complete the entry with inhibition for "O[C@@H]1[C@@H](O)CN[C@H]1c1ccc(F)cc1"
8.3

[P] OC[C@H]1NC[C@@H](O)[C@@H]1O
[Q] O[C@H]1[C@H](O)CN[C@@H]1c1ccc(-c2ccccc2)cc1
[R] Cc1ccc([C@H]2NC[C@@H](O)[C@@H]2O)cc1
[S] O[C@H]1[C@H](O)CN[C@@H]1c1ccccc1
// smallest inhibition at index 0, largest at the end Output spec: a listing of the labels in the requested order.
Q, S, R, P

[P] Cc1ccc([C@@H]2NC[C@H](O)[C@H]2O)cc1
[Q] O[C@H]1[C@H](O)CN[C@@H]1c1ccc(F)cc1
// which entry reports the smaller inhibition, P or Q ? Reply briefly: the label of your chosen item.
Q
(Q: 0%, P: 2.3%)
